These measurements were taken from patent US20180002366A1.

target.desc: adenosine deaminase (ADA) type 1 (Homo sapiens)
Sequence (P00813 1-363): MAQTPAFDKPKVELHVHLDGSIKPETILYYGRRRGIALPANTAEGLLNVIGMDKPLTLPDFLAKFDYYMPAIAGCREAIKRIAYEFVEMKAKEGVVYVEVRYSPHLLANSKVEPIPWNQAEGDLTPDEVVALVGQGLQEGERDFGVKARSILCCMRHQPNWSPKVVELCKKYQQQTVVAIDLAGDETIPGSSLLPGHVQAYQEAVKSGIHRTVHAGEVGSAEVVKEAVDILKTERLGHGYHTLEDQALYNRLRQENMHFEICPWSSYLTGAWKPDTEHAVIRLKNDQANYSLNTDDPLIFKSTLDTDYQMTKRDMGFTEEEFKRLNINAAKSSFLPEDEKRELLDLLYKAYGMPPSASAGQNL
run.description: Adenosine Deaminase (ADA) Half-Life
Assay type: in vitro ADME
assay.setup: human, human adenosine deaminase (ADA) type 1 in Tris-HCl buffer; time for 50% conversion to inosine product; Tris-HCl buffer pH 7.5, 40° C., LCMS
half-life at 4.8 mM for assorted compounds
# value in h; strip the unit string

Some solved cases for reference:
• C#C[C@]1(CO)O[C@@H](n2cc(F)c3c(N)ncnc32)C[C@@H]1O = 16
• C#C[C@]1(CO)O[C@@H](c2cnn3c(N)ncnc23)C[C@@H]1O = 0.167
• C#C[C@]1(CO)O[C@@H](n2ccc3c(N)ncnc32)C[C@@H]1O = 288

Reported half-life at 4.8 mM for C#C[C@]1(CO)O[C@@H](c2ccc3c(N)ncnn23)C[C@@H]1O : what is it?
3

What would you report for C#C[C@]1(CO)O[C@@H](c2cnc3c(N)ncnn23)C[C@@H]1O ?
0.167

* * *

target.desc: HIV-1 RT enzyme (Human immunodeficiency virus type 1 group M subtype B)
Construct: Full-length wild-type and 2 mutant RT proteins were expressed in Escherichia coli BL21(DE3) cells and purified
run.description: RT Polymerase Assay
Experimental: Full-length wild-type and 2 mutant RT proteins were expressed in Escherichia coli BL21(DE3) cells and purified. Briefly, the heterodimeric nucleic acid substrate used in the HIV-1 RT polymerase reactions was generated by annealing biotinylated DNA primer to a 500 nucleotide RNA template. […] The mixtures were incubated at room temperature for 60 min prior to the quantification of the reaction product via an ECL 6000 imager instrument.
observable: IC50 (nM)
# value in nM; strip the unit string

• C#C[C@]1(COP(=O)(O)OP(=O)(O)OP(=O)(O)O)O[C@@H](n2ccc3c(N)nc(Cl)nc32)C[C@@H]1O = 1820
• C#C[C@]1(COP(=O)(O)OP(=O)(O)OP(=O)(O)O)O[C@@H](n2cc(Cl)c3c(N)ncnc32)C[C@@H]1O [Example 17, triphosphate] = 842
• C#C[C@]1(COP(=O)(O)OP(=O)(O)OP(=O)(O)O)O[C@@H](n2cc(C)c3c(N)ncnc32)C[C@@H]1O = 6240
• C#C[C@]1(COP(=O)(O)OP(=O)(O)OP(=O)(O)O)O[C@@H](n2ccc3c(N)ncnc32)C[C@@H]1O [Example 13, triphosphate] = 933

Reported IC50 for C#C[C@]1(COP(=O)(O)OP(=O)(O)OP(=O)(O)O)O[C@@H](c2cnc3c(N)ncnn23)C[C@@H]1O [Example 21, triphosphate] : what is it?
905

What would you report for C#C[C@]1(COP(=O)(O)OP(=O)(O)OP(=O)(O)O)O[C@@H](n2cc(F)c3c(N)ncnc32)C[C@@H]1O [Example 14, triphosphate] ?
210

* * *

System: HIV-1 (H9IIIB virus) replication in MT4-GFP cells
run.description: Antiviral Persistence assay
assay.setup: Human immunodeficiency virus 1, read-out: IC50 72 h (nM)
IC50 for assorted compounds
# value in nM; strip the unit string

* C#C[C@]1(CO)O[C@@H](n2cc(C)c3c(N)ncnc32)C[C@@H]1O [Example 3] | 2500
* C#C[C@]1(CO)O[C@@H](c2cnn3c(N)ncnc23)C[C@@H]1O [Example 23] | 700
* C#C[C@]1(CO)O[C@@H](n2ccc3c(N)nc(N)nc32)C[C@@H]1O [Example 8] | 29000
* C#C[C@]1(CO)O[C@@H](n2ccc3c(N)ncnc32)C[C@@H]1O [Example 1] | 36
* C#C[C@]1(CO)O[C@@H](n2cc(F)c3c(N)ncnc32)C[C@@H]1O [Example 2] | 193
* C#C[C@]1(CO)O[C@@H](n2ccc3c(N)nc(Cl)nc32)C[C@@H]1O [Example 4] | 360

Attention now turns to another entry.
Reported IC50 for C#C[C@]1(CO)O[C@@H](n2cc(I)c3c(N)ncnc32)C[C@@H]1O [Example 7] : what is it?
17000
